# test-name: PK by LCMS in PC3LN5 subcutaneous xenograft mice
# Type: in vivo
# conditions-used: mouse, plasma, intraperitoneal; 100 mg/kg IP, 24 h, Nu mice with PC3LN5 xenografts; read-out: Plasma concentrations
result-type: concentration at 24 h

Incoming: Determine its reported concentration at 24 h: CCC1=C(CC2NCCc3cc(OC)c(OC)cc32)CC2c3ccccc3CCN2C1 (stereo not shown)
Outgoing: 70 to 300 nM

---

# test-name: PK by LCMS in PC3LN5 subcutaneous xenograft mice
# Assay type: in vivo
# conditions-used: mouse, tumour (PC3LN5 subcutaneous xenograft), intraperitoneal; 100 mg/kg IP, 24 h, PC3LN5 subcutaneous xenografts, Nu mice, LCMS; read-out: Tumour concentrations
# Experimental: HIF-Inhib1 was administered IP dose of 100 mg·kg^−1 to Nu mice with PC3LN5 xenografts. Mice were killed at 24 h and xenografts removed for PD/PK analysis. Tumour samples were homogenised with 3× (v/w) PBS and 50 μL extracted by addition of 150 μL of methanol. Tumour extracts were analysed by LCMS using reverse-phase Synergi Polar-RP (Phenomenx, 50×2.1 mm) analytical column and positive ion mode ESI+ MRM.
result-type: concentration at 24 h

Incoming: Determine its reported concentration at 24 h: CCC1=C(CC2NCCc3cc(OC)c(OC)cc32)CC2c3ccccc3CCN2C1 (stereo not shown)
Outgoing: 1.9 to 35 µM

---

# test-name: Tolerability of daily IP dosing in mice
# conditions-used: mouse, in vivo
result-type: MTD

Incoming: Determine its reported MTD: CCC1=C(CC2NCCc3cc(OC)c(OC)cc32)CC2c3ccccc3CCN2C1 (stereo not shown) [Compound I]
Outgoing: ≤ 100 mg/kg

Origin of measurements: patent US20170157112A1
